Origin of measurements: patent US7001907B2

# testTarget: Recombinant human calpain I (Homo sapiens)
# Construct: made in house
# Sequence (P07384 whole entry): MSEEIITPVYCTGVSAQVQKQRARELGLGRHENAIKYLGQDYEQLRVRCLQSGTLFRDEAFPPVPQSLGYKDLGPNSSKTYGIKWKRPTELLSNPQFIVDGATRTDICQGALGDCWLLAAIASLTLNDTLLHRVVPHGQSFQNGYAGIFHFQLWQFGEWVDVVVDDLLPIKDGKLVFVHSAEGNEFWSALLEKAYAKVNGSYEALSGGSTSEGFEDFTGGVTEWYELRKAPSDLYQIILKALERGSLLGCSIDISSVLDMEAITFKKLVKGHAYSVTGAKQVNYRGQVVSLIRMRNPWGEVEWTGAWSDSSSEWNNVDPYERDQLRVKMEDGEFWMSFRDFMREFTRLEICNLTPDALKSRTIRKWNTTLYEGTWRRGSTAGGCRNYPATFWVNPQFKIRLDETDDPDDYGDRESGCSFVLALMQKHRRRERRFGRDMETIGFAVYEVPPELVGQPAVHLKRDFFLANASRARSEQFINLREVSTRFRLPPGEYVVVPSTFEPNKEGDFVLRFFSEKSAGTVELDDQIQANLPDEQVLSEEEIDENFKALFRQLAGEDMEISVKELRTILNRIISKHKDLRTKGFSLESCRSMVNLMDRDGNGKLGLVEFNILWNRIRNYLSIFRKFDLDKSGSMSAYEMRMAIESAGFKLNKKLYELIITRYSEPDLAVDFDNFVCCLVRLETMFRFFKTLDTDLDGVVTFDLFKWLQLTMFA
# Sequence (P04632 whole entry partner): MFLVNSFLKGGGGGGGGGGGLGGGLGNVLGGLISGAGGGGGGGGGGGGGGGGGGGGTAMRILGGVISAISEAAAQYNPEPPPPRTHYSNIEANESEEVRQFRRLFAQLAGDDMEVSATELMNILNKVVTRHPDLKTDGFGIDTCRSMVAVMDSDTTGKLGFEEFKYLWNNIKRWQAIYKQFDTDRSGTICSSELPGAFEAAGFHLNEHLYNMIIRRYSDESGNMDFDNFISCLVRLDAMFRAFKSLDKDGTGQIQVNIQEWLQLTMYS
# testDetails: Inhibition of cysteine protease activity: calpain I, Succ-Leu-Tyr-MNA substrate hydrolysis
# Format: biochemical
# conditionDescription: Table 4, α-ketoamides
measurementType: IC50 (nM)

INSERT INTO results (compound, endpointvalue) VALUES
  ('CS(=O)(=O)N[C@H](COCc1ccccc1)C(=O)N[C@@H](Cc1ccccc1)C(=O)C(=O)NCCNS(=O)(=O)c1ccc(-c2cccc(C=O)c2)s1 [Compound 52]', 5);

[A] CS(=O)(=O)N[C@@H](COCc1ccccc1)C(=O)N[C@@H](Cc1ccccc1)C(=O)C(=O)NCCNS(=O)(=O)c1ccccc1 [Compound 116]
[B] CS(=O)(=O)N[C@H](COCc1ccccc1)C(=O)N[C@@H](Cc1ccccc1)C(=O)C(=O)NCCNC(=NC#N)Oc1ccccc1 [Compound 53]
Query: Kindly identify which of A and B has the larger recorded IC50 value. // respond with label for picked entry
Reply: A
(A: 100 nM, B: 15 nM)
